# Test system: CD2F1 mice, L1210 leukemia ip, survival T/C
# EXPERIMENT_DESCRIPTION: NCI In Vivo Anticancer Drug Screen. Data for tumor model L1210 Leukemia (intraperitoneal) in CD2F1 (CDF1) mice
# TEST_SETTINGS: endpoint: mean survival time; dose: 100.0 mg/kg/injection; schedule: Q04DX003 (ip); vehicle: saline with Tween-80; higher = longer survival
Inconclusive results and toxic doses are left out.
We begin with a simple list: items and their reported T/C.

Some compounds with known T/C results, for comparison:
COMPOUND: O=C1C(=O)C(c2ccccc2)(c2ccccc2)c2cc(-c3ccccc3)c(-c3ccccc3)cc21
T/C: 93 % of control
--
COMPOUND: Cc1nc2[nH]c(=S)[nH]c(=O)c2nc1C
T/C: 97 % of control
--
COMPOUND: O=Cc1ccc(N=Nc2c(S(=O)(=O)O)cc3cc(S(=O)(=O)O)cc(O)c3c2O)cc1
T/C: 96 % of control
--
COMPOUND: CC1CC2(C)C(CC1=O)CC(C)C1C3CCC(O)C3(C)CCC12 (configuration not stated)
T/C: 97 % of control
--
COMPOUND: CCOC(=O)c1ccc(NC(=O)Nc2ccc(Nc3ccccc3)cc2)cc1
T/C: 92 % of control

Under CD2F1 mice, L1210 leukemia ip, survival T/C: T/C value of c1ccc(-c2ccccc2N=C2N=NN=N2)cc1 ?
103 % of control

Also check Cc1ccc2c(C)cc(=O)[nH]c2c1
95 % of control

----------
# Test system: CD2F1 mice, L1210 leukemia ip, survival T/C
# EXPERIMENT_DESCRIPTION: NCI In Vivo Anticancer Drug Screen. Data for tumor model L1210 Leukemia (intraperitoneal) in CD2F1 (CDF1) mice
# TEST_SETTINGS: endpoint: mean survival time; dose: 200.0 mg/kg/injection; schedule: Q01DX009 (ip); vehicle: Klucel (hydroxypropylcellulose) (HPC); higher = longer survival
Toxic doses and inconclusive results are not listed.
PROPERTY: T/C

COMPOUND: CCCCS(CCCC)=NS(=O)(=O)c1ccc(C)cc1
T/C: 90 % of control
//
COMPOUND: O=C(O)/C=C/c1cccs1
T/C: 96 % of control
//
COMPOUND: N#CCCCN1C(=O)c2ccccc2C1=O
T/C: 99 % of control
//
COMPOUND: CC1(CC(C)(C)c2ccccc2)OCCO1
T/C: 102 % of control
//
COMPOUND: O=C1c2ccccc2CC12OC2c1ccccc1 (configuration not stated)
T/C: 98 % of control

I have this compound here, CCOC(=O)/C=C(/Nc1ccc(S(=O)(=O)F)cc1)c1ccccc1 , and I need its recorded T/C.
100 % of control

Also check Cc1ccc(S(=O)(=O)CCCCl)cc1
100 % of control

----------
# Test system: CD2F1 mice, L1210 leukemia ip, survival T/C
# EXPERIMENT_DESCRIPTION: NCI In Vivo Anticancer Drug Screen. Data for tumor model L1210 Leukemia (intraperitoneal) in CD2F1 (CDF1) mice
# TEST_SETTINGS: endpoint: mean survival time; dose: 200.0 mg/kg/injection; schedule: Q04DX003 (ip); vehicle: saline; higher = longer survival
Inconclusive results and toxic doses are left out.
PROPERTY: T/C

Some molecules with known T/C results, for comparison:
MOLECULE: OC1OCC(Cc2ccc3c(c2)OCO3)C1Cc1ccc2c(c1)OCO2 (stereo unspecified)
T/C: 93 % of control
//
MOLECULE: CCCCCCCC(C)/C=N/NC(=O)c1ccc[n+](C)c1 (stereo unspecified)
T/C: 101 % of control
//
MOLECULE: CC1=C2CC3CCC(C)C2(CC1)C3(C)C (stereo unspecified)
T/C: 98 % of control
//
MOLECULE: CCC(C)C(=O)CN(C)c1ccccc1 (stereo unspecified)
T/C: 102 % of control
//
MOLECULE: Nc1ccnnc1
T/C: 101 % of control

Shifting focus to the molecule that follows.
Under CD2F1 mice, L1210 leukemia ip, survival T/C: T/C value of CCN(CC)c1nc(Cl)nc(NC(C)C)n1 ?
100 % of control
